Ref: the supplement of paper PMC9233669

# Test system: biotinyl-Ile-oxazolone
# protocolDetails: self-aminoacylation, catalytic enhancement (BIO) (fold over background); higher = more active; k-Seq, kA / k0A0; sequences stand for … in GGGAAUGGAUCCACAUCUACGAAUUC…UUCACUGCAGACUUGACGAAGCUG
Fewer inactive variants are shown than the library holds.
Classification field: enter class 1 for self-aminoacylation values not below 0.9, class 0 for values below it.

INSERT INTO results (seq, grouplabel) VALUES
  ('CUUCACCUAGGACAUCGGGUG [Fam2.2 aminoacylation ribozyme variant]', 'class 1'),
  ('CUACUUGAAAGAAUCGGUCUG [Fam1A.1 aminoacylation ribozyme variant]', 'class 0'),
  ('CUACUUCAAACAACCGGUAUG [Fam1A.1 aminoacylation ribozyme variant]', 'class 0'),
  ('CCACACAUCAAGCAGUCGGUC [Fam1B.1 aminoacylation ribozyme variant]', 'class 1'),
  ('CUACUCCAAACAAUAGGUCUG [Fam1A.1 aminoacylation ribozyme variant]', 'class 0'),
  ('CCACACAUCCAGCAAUCGGUC [Fam1B.1 aminoacylation ribozyme variant]', 'class 1'),
  ('AUUCACAUAGGUCAUCGGGUG [Fam2.2 aminoacylation ribozyme variant]', 'class 1');

====

# System: biotinyl-Ile-oxazolone
# protocolDetails: self-aminoacylation, catalytic enhancement (BIO) (fold over background); higher = more active; k-Seq, kA / k0A0; sequences stand for … in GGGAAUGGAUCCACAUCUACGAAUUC…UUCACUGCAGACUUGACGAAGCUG
This sample holds only a part of the variants without activity.
reportedMetric: self-aminoacylation

INSERT INTO assay_data (seq, systemundertest, measurement) VALUES
  ('CCAGACUUCAAGCAAUCGGUC [Fam1B.1 aminoacylation ribozyme variant]', 'biotinyl-Ile-oxazolone', 1.45),
  ('AUUACCCUGGUCAUCGGGUGA [Fam2.1 aminoacylation ribozyme variant]', 'biotinyl-Ile-oxazolone', 47),
  ('CCACACUUCAAGCUAUGGGUC [Fam1B.1 aminoacylation ribozyme variant]', 'biotinyl-Ile-oxazolone', 0.966),
  ('AAGUUAGCUAAUAGCCGCAAG [Fam3.1 aminoacylation ribozyme variant]', 'biotinyl-Ile-oxazolone', 1.88);

====

# System: biotinyl-Val-oxazolone
# protocolDetails: self-aminoacylation, catalytic enhancement (BVO) (fold over background); higher = more active; k-Seq, kA / k0A0; sequences stand for … in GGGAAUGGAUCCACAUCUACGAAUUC…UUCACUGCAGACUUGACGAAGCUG
This sample holds only a part of the variants without activity.
Classification field: enter Satisfied for self-aminoacylation values not below 3, Not satisfied for values below it.

INSERT INTO measurements (seq, grouplabel) VALUES
  ('AUUCGCCUAGGUCCUCGGGUG [Fam2.2 aminoacylation ribozyme variant]', 'Satisfied'),
  ('AUUCACCUAAGUCAUCGGGAG [Fam2.2 aminoacylation ribozyme variant]', 'Not satisfied'),
  ('AUUACCCUCGUCAGCGAGUGA [Fam2.1 aminoacylation ribozyme variant]', 'Not satisfied'),
  ('CCACACUUCAAUCAGUCGGUC [Fam1B.1 aminoacylation ribozyme variant]', 'Not satisfied');

====

# System: biotinyl-Leu-oxazolone
# protocolDetails: self-aminoacylation, catalytic enhancement (BLO) (fold over background); higher = more active; k-Seq, kA / k0A0; sequences stand for … in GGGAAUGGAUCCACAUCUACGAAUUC…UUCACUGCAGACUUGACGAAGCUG
Variants at the floor of the assay were thinned out.
reportedMetric: self-aminoacylation

INSERT INTO results (seq, reportedmetric, measurement) VALUES
  ('UCACACUUUAAGCAAUCGGUC [Fam1B.1 aminoacylation ribozyme variant]', 'self-aminoacylation', 0.791),
  ('AUUACCCUGGUCAUCGUAUGA [Fam2.1 aminoacylation ribozyme variant]', 'self-aminoacylation', 0.814),
  ('AUGCACCCAGGUCAUCGGGUG [Fam2.2 aminoacylation ribozyme variant]', 'self-aminoacylation', 4.35),
  ('CUCCUUCAAACAAUCGCUCUG [Fam1A.1 aminoacylation ribozyme variant]', 'self-aminoacylation', 0.78);
